Test system: 817829-284-R-J1-PDC complex spheroids, viability
EXPERIMENT SUMMARY: Anticancer human tumor 817829-284-R-J1-PDC patient-derived colon adenocarcinoma cell line growth inhibition [GQUAD]
CONDITION CONTEXT: second compound 0.1 µM; first compound 10 µM; stronger effect = lower value
Measured viability, T/C values are reported for all entries that follow.
PARAMETER: viability, T/C (%)

>  <COMPOUND>
C=CCn1c(=O)c2cnc(Nc3ccc(N4CCN(C)CC4)cc3)nc2n1-c1cccc(C(C)(C)O)n1 + Cc1cnc(CNC(=O)c2c(=O)c3ccc(N4CCCN(C)CC4)nc3n3c2sc2ccccc23)cn1

>  <PARAMETER>
viability, T/C

>  <NUMERIC VALUE>
6.17

$$$$
>  <COMPOUND>
CCCS(=O)(=O)Nc1ccc(F)c(C(=O)c2c[nH]c3ncc(-c4ccc(Cl)cc4)cc23)c1F + CN(C)c1ccc(Nc2c3ccc(NC(=O)CCN4CCCC4)cc3nc3cc(NC(=O)CCN4CCCC4)ccc23)cc1

>  <PARAMETER>
viability, T/C

>  <NUMERIC VALUE>
21.5

$$$$
>  <COMPOUND>
COc1cc(C2c3cc4c(cc3C(OC3OC5COC(C)OC5C(O)C3O)C3COC(=O)C23)OCO4)cc(OC)c1O (stereo not drawn) + Cc1[nH]c2ccc(F)cc2c1-c1nc2c3cccnc3c3ncccc3c2[nH]1

>  <PARAMETER>
viability, T/C

>  <NUMERIC VALUE>
9.21

$$$$

---

Tested on: 817829-284-R-J1-PDC complex spheroids, viability
EXPERIMENT SUMMARY: Anticancer human tumor 817829-284-R-J1-PDC cell line growth inhibition [GQUAD];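 also: spheroids exposed to agents for 7 days before readout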
CONDITION CONTEXT: curve of first compound; second compound 1 µM
pIC50: −log10 of the molar value.
Measured pIC50 values are reported for all entries that follow.
PARAMETER: pIC50

>  <COMPOUND>
CC1COCCN1c1cc(C2(S(C)(=N)=O)CC2)nc(-c2ccnc3[nH]ccc23)n1 (stereo not given) + Cc1cnc(CNC(=O)c2c(=O)c3ccc(N4CCCN(C)CC4)nc3n3c2sc2ccccc23)cn1

>  <TESTED TARGET>
817829-284-R-J1-PDC complex spheroids, viability

>  <PARAMETER>
pIC50

>  <QUALIFYING SIGN>
>

>  <NUMERIC VALUE>
7.50

$$$$
>  <COMPOUND>
COc1cccc2c1C(=O)c1c(O)c3c(c(O)c1C2=O)CC(O)(C(=O)CO)CC3OC1CC(N)C(O)C(C)O1 (stereo not given) + CN(C)c1ccc(Nc2c3ccc(NC(=O)CCN4CCCC4)cc3nc3cc(NC(=O)CCN4CCCC4)ccc23)cc1

>  <TESTED TARGET>
817829-284-R-J1-PDC complex spheroids, viability

>  <PARAMETER>
pIC50

>  <QUALIFYING SIGN>
=

>  <NUMERIC VALUE>
7.02

$$$$
>  <COMPOUND>
C=CCn1c(=O)c2cnc(Nc3ccc(N4CCN(C)CC4)cc3)nc2n1-c1cccc(C(C)(C)O)n1 + Cc1[nH]c2ccc(F)cc2c1-c1nc2c3cccnc3c3ncccc3c2[nH]1

>  <TESTED TARGET>
817829-284-R-J1-PDC complex spheroids, viability

>  <PARAMETER>
pIC50

>  <QUALIFYING SIGN>
=

>  <NUMERIC VALUE>
6.66

$$$$
>  <COMPOUND>
CC1COCCN1c1cc(-c2ccnn2C)c2ccnc(-c3ccn[nH]3)c2n1 (stereo not given) + CN(C)c1ccc(Nc2c3ccc(NC(=O)CCN4CCCC4)cc3nc3cc(NC(=O)CCN4CCCC4)ccc23)cc1

>  <TESTED TARGET>
817829-284-R-J1-PDC complex spheroids, viability

>  <PARAMETER>
pIC50

>  <QUALIFYING SIGN>
>

>  <NUMERIC VALUE>
7.50

$$$$
>  <COMPOUND>
CC1COCCN1c1cc(C2(O)CC3CCC(C2)O3)c2cnn(-c3ccn[nH]3)c2n1 (stereo not given) + Cc1[nH]c2ccc(F)cc2c1-c1nc2c3cccnc3c3ncccc3c2[nH]1

>  <TESTED TARGET>
817829-284-R-J1-PDC complex spheroids, viability

>  <PARAMETER>
pIC50

>  <QUALIFYING SIGN>
>

>  <NUMERIC VALUE>
7.50

$$$$

---

Tested on: 817829-284-R-J1-PDC complex spheroids, viability
EXPERIMENT SUMMARY: Anticancer human tumor 817829-284-R-J1-PDC cell line growth inhibition [GQUAD];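 also: spheroids exposed to agents for 7 days before readout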
CONDITION CONTEXT: curve of first compound; second compound 10 µM
pIC50: −log10 of the molar value.
Measured pIC50 values are reported for all entries that follow.
PARAMETER: pIC50

>  <MOLECULE>
CCc1c2c(nc3ccc(O)cc13)-c1cc3c(c(=O)n1C2)COC(=O)[C@]3(O)CC + Cc1cnc(CNC(=O)c2c(=O)c3ccc(N4CCCN(C)CC4)nc3n3c2sc2ccccc23)cn1

>  <QUALIFYING SIGN>
>

>  <NUMERIC VALUE>
9.00

$$$$
>  <MOLECULE>
O=C(c1cc(Cc2n[nH]c(=O)c3ccccc23)ccc1F)N1CCN(C(=O)C2CC2)CC1 + Cc1[nH]c2ccc(F)cc2c1-c1nc2c3cccnc3c3ncccc3c2[nH]1

>  <QUALIFYING SIGN>
=

>  <NUMERIC VALUE>
5.97

$$$$
>  <MOLECULE>
CC1COCCN1c1cc(C2(S(C)(=N)=O)CC2)nc(-c2ccnc3[nH]ccc23)n1 (stereo not given) + Cc1cnc(CNC(=O)c2c(=O)c3ccc(N4CCCN(C)CC4)nc3n3c2sc2ccccc23)cn1

>  <QUALIFYING SIGN>
>

>  <NUMERIC VALUE>
7.50

$$$$
>  <MOLECULE>
CC(C)(O)C1CCC(Nc2ccc3ncc(-c4cccc(C(F)(F)F)c4)n3n2)CC1 (stereo not given) + Cc1[nH]c2ccc(F)cc2c1-c1nc2c3cccnc3c3ncccc3c2[nH]1

>  <QUALIFYING SIGN>
>

>  <NUMERIC VALUE>
7.50

$$$$
>  <MOLECULE>
COc1cc(C2c3cc4c(cc3C(OC3OC5COC(C)OC5C(O)C3O)C3COC(=O)C23)OCO4)cc(OC)c1O (stereo not given) + Cc1[nH]c2ccc(F)cc2c1-c1nc2c3cccnc3c3ncccc3c2[nH]1

>  <QUALIFYING SIGN>
=

>  <NUMERIC VALUE>
7.35

$$$$

---

Test system: 817829-284-R-J1-PDC complex spheroids, viability
EXPERIMENT SUMMARY: Anticancer human tumor 817829-284-R-J1-PDC cell line growth inhibition [GQUAD];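 also: spheroids exposed to agents for 7 days before readout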;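 as to viability, T/C: percent viability relative to DMSO vehicle control taken as 100%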
CONDITION CONTEXT: second compound 3.16 µM; first compound 0.0999 µM; stronger effect = lower value
Text: DNA G-quadruplex Stabilizer Agents in Combinations in Complex Spheroids A high-throughput screen of multi-cell type tumor spheroids was designed to identify active combinations of DNA G-quadruplex stabilizer agents and targeted small molecules. […] Compounds. […] If the clinical Cmax for an agent had not been determined, the highest concentration tested was 10 microM. […]

>  <COMPOUND>
Cc1[nH]c2ccccc2c1CCNCc1ccc(/C=C/C(=O)NO)cc1 + Cc1cnc(CNC(=O)c2c(=O)c3ccc(N4CCCN(C)CC4)nc3n3c2sc2ccccc23)cn1

>  <viability, T/C>
0.11%

$$$$
>  <COMPOUND>
CC[C@@]1(O)C(=O)OCc2c1cc1n(c2=O)Cc2cc3c(CN(C)C)c(O)ccc3nc2-1 + CN(C)c1ccc(Nc2c3ccc(NC(=O)CCN4CCCC4)cc3nc3cc(NC(=O)CCN4CCCC4)ccc23)cc1

>  <viability, T/C>
41.5%

$$$$
>  <COMPOUND>
CCc1c2c(nc3ccc(O)cc13)-c1cc3c(c(=O)n1C2)COC(=O)[C@]3(O)CC + Cc1cnc(CNC(=O)c2c(=O)c3ccc(N4CCCN(C)CC4)nc3n3c2sc2ccccc23)cn1

>  <viability, T/C>
3.99%

$$$$
>  <COMPOUND>
CC[C@@]1(O)C(=O)OCc2c1cc1n(c2=O)Cc2cc3c(CN(C)C)c(O)ccc3nc2-1 + Cc1cnc(CNC(=O)c2c(=O)c3ccc(N4CCCN(C)CC4)nc3n3c2sc2ccccc23)cn1

>  <viability, T/C>
20%

$$$$
>  <COMPOUND>
CCc1c2c(nc3ccc(O)cc13)-c1cc3c(c(=O)n1C2)COC(=O)[C@]3(O)CC + Cc1[nH]c2ccc(F)cc2c1-c1nc2c3cccnc3c3ncccc3c2[nH]1

>  <viability, T/C>
5.28%

$$$$
>  <COMPOUND>
Cn1ncnc1[C@H]1c2n[nH]c(=O)c3cc(F)cc(c23)N[C@@H]1c1ccc(F)cc1 + Cc1cnc(CNC(=O)c2c(=O)c3ccc(N4CCCN(C)CC4)nc3n3c2sc2ccccc23)cn1

>  <viability, T/C>
20.4%

$$$$
